Measured values drawn from PubChem BioAssay (EPA / NIEHS) for this set.

- assay-method-text: BSK_SAg_Proliferation: Cell Proliferation Assessment in the BioMAP Diversity Plus: SAg Assay (AID 2283095);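 further: relative cell number as total protein by SRB absorbance in sub-confluent culture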
- measurement-conditions: primary human HUVEC with PBMC
Activity calls are given as the source filed them. How the source made its calls: active means hit-call score of the fitted dose curve at least 0.9, where 1 is the maximum; inactive means score below 0.9.
API: response.call in 1 (active), -1 (inactive)

Query: Dear colleague, could you share the recorded outcome for OCC(CO)(CBr)CBr when you have a moment?
Response: -1

Query: Dear colleague, could you share the recorded outcome for CN(CCO)S(=O)(=O)C(F)(F)C(F)(F)C(F)(F)C(F)(F)C(F)(F)C(F)(F)C(F)(F)C(F)(F)F when you have a moment?
Response: -1

Query: Dear colleague, could you share the recorded outcome for Cc1ccc(N=Nc2c(O)ccc3ccccc23)c(C)c1 when you have a moment?
Response: 1

Query: Dear colleague, could you share the recorded outcome for C=CC(=C)CC/C=C(\C)CCC=C(C)C when you have a moment?
Response: -1

Query: Dear colleague, could you share the recorded outcome for CC[N+](CC)(CC)Cc1ccccc1 when you have a moment?
Response: -1

Others:
Query: Dear colleague, could you share the recorded outcome for CC(=O)Nc1ccc(O)cc1 when you have a moment?
Response: -1

Query: Dear colleague, could you share the recorded outcome for C=CC(C)(CCC=C(C)C)OC(C)=O (configuration not stated) when you have a moment?
Response: -1

Query: Dear colleague, could you share the recorded outcome for CC1=NN(c2ccccc2)C(=O)C1 when you have a moment?
Response: -1

Query: Dear colleague, could you share the recorded outcome for Cc1[nH]nc2c1N=C(c1ccccc1Cl)c1cc([N+](=O)[O-])ccc1N2 when you have a moment?
Response: 1

Query: Dear colleague, could you share the recorded outcome for O=C(NO)c1ccccc1 when you have a moment?
Response: -1

Query: Dear colleague, could you share the recorded outcome for Oc1cc2ccccc2cc1O when you have a moment?
Response: -1
